Target: VLA4 (Homo sapiens, UniProt P05556+P13612)
Construct: endogenous in cells
Sequence (P13612 34-1032): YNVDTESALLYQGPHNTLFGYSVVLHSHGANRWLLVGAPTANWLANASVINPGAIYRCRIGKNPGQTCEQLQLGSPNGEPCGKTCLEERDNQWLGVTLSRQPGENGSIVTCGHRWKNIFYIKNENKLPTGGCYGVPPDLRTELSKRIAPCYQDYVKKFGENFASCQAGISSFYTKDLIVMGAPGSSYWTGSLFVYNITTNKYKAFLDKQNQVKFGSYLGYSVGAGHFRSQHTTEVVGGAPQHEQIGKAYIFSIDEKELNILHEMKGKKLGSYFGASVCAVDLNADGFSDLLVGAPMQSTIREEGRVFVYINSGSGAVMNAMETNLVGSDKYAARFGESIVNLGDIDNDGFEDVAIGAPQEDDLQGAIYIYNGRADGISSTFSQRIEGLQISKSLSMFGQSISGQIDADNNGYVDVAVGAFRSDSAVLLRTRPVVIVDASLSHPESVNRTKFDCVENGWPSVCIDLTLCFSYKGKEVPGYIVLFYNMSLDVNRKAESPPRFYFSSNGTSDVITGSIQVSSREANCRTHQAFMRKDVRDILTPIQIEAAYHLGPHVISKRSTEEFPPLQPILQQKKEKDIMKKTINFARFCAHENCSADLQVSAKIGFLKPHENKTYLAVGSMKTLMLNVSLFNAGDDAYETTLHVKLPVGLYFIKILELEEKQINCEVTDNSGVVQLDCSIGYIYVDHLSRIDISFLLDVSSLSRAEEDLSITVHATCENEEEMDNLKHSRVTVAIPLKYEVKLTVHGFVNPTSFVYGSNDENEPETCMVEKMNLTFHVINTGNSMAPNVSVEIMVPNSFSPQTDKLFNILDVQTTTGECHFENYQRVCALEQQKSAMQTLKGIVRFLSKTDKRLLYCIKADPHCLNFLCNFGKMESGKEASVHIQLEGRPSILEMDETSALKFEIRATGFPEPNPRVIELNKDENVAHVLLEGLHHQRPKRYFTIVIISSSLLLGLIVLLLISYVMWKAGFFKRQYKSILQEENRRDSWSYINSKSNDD
Sequence (P05556 21-798): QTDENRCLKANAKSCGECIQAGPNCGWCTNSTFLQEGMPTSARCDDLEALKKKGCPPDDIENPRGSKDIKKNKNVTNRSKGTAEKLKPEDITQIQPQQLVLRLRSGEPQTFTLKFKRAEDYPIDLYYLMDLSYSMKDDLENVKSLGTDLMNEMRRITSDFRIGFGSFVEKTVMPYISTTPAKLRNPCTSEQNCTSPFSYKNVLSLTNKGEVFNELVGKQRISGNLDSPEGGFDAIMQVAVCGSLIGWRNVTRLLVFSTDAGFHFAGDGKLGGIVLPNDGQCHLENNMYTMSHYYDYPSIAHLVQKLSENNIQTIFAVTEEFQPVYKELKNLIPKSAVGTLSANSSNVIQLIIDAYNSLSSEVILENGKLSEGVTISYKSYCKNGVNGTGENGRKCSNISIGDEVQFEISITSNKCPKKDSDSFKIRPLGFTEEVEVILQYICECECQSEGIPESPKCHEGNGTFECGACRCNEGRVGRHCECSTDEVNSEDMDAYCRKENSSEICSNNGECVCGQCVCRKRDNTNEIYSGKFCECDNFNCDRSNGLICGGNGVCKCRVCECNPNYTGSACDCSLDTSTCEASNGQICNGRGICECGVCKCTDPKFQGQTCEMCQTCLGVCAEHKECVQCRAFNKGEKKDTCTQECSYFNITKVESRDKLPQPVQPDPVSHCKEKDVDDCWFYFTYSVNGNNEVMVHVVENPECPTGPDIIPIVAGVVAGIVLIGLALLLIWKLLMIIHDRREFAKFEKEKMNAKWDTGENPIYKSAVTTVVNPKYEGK
Assay: Inhibition of VLA4-dependent adhesion to BSA-CS1 (labelled Ramos cells)
Conditions: binding of BCECF-AM labelled Ramos cells to CS1 peptide-coated wells, 2 mM MnCl2, 30 minutes at room temperature; IC50 range
Description: For example, the cell adhesion inhibitory activity of these compounds may be measured by determining the concentration of inhibitor required to block the binding of VLA-4-expressing cells to fibronectin- or CS1-coated plates. […] Inhibition of binding is measured by quantitating the fluorescence or radioactivity bound to the plate for each of the various concentrations of test compound, as well as for controls containing no test compound. […]
pIC50: −log10 of the molar value.
Listing of entries alongside the reported pIC50.

Below, each entry is followed by its recorded pIC50 result.
CC(C)CC(NC(=O)Cc1ccc(O)cc1)C(=O)NC(CC(=O)O)Cc1ccccc1 (stereo not drawn) [compound 1143]: < 5.00
CC(C)CC(NC(=O)Cc1cccc2ccccc12)C(=O)NC(CC(=O)O)c1ccccc1 (stereo not drawn) [compound 1021]: 5.00 to 7.30
COc1ccc(C(CC(=O)O)NC(=O)C(CC(C)C)NC(=O)Cc2ccc(NC(=O)Nc3ccccc3OC)cc2)cc1 (stereo not drawn) [compound 1192]: > 7.30

Prompt: Entry CC(C)CC(NC(=O)Cc1cccc(NC(=O)OCc2ccccc2)c1)C(=O)NC(CC(=O)O)c1ccccc1 (stereo not drawn) [compound 1031] needs its pIC50 filled in; supply it.
Completion: < 5.00

Prompt: Write down pIC50 measured for item CC(C)CC(NC(=O)Cc1ccc(NC(=O)Nc2ccccc2)cc1)C(=O)NC(CC(=O)O)c1ccccc1 (stereo not drawn) [compound 1060]
Completion: 5.00 to 7.30

Prompt: Check the records and state pIC50 for O=C(O)CC(NC(=O)C(Cc1ccccc1)NC(=O)Cc1ccccc1)c1ccccc1 (stereo not drawn) [compound 1046]
Completion: < 5.00

Prompt: Fill in pIC50 for record COc1ccc(C(CC(=O)O)NC(=O)C(CC(C)C)NC(=O)Cc2ccc(NC(=O)Nc3ccccc3C(C)C)cc2)cc1 (stereo not drawn) [compound 1207]
Completion: < 5.00

Prompt: Supply reported pIC50 belonging to this compound: CC(C)CC(NC(=O)Cc1ccc(NC(=O)Cc2ccccc2)cc1)C(=O)NC(CC(=O)O)c1ccccc1 (stereo not drawn) [compound 1023]
Completion: 5.00 to 7.30

====

Here, each record is paired with measured IC50 data.
Target: VLA4 (Homo sapiens, UniProt P05556+P13612)
Construct: endogenous in cells
Assay: Inhibition of VLA4-dependent adhesion to BSA-CS1 (labelled Ramos cells)
Conditions: binding of BCECF-AM labelled Ramos cells to CS1 peptide-coated wells, 2 mM MnCl2, 30 minutes at room temperature; IC50 range

CC(C)CC(NC(=O)Cc1cccc(NC(=O)c2ccccc2)c1)C(=O)NC(CC(=O)O)c1ccccc1 (stereo not shown): > 10 µM

Prompt: // Input: CC(C)CC(NC(=O)C1(c2ccccc2)CC1)C(=O)NC(CC(=O)O)c1ccc2c(c1)OCO2 (stereo not shown) . Output its IC50 only.
Completion: > 10 µM

Prompt: Identify IC50 associated with the compound COc1ccc(C(CC(=O)O)NC(=O)C(CC(C)C)NC(=O)Cc2ccc(NC(=O)Nc3ccccn3)cc2)cc1OC (stereo not shown)
Completion: 0.05 to 10 µM

Prompt: Input COc1ccc(C(CC(=O)O)NC(=O)C(CCSC)NC(=O)Cc2ccc(NC(=O)Nc3ccccc3C)cc2)cc1 (stereo not shown) , output reported IC50.
Completion: < 0.05 µM

Prompt: Please look at this compound and report its IC50: COc1ccc(C(CC(=O)O)NC(=O)C(CCSC)NC(=O)Cc2ccc(O)cc2)cc1 (stereo not shown)
Completion: 0.05 to 10 µM

Prompt: Identify measured IC50 corresponding to CC(C)CC(NC(=O)Cc1ccccc1O)C(=O)NC(CC(=O)O)c1ccccc1 (stereo not shown)
Completion: > 10 µM

Prompt: Assign IC50 to the following record: CCC(C)C(NC(=O)Cc1ccc(NC(=O)Nc2ccccc2)cc1)C(=O)NC(CC(=O)O)c1ccc2c(c1)OCO2 (stereo not shown)
Completion: 0.05 to 10 µM
